pIC50 values by entry
- Target Entity: human FSH receptor (Homo sapiens, UniProt P23945)
- Sequence (P23945 18-695): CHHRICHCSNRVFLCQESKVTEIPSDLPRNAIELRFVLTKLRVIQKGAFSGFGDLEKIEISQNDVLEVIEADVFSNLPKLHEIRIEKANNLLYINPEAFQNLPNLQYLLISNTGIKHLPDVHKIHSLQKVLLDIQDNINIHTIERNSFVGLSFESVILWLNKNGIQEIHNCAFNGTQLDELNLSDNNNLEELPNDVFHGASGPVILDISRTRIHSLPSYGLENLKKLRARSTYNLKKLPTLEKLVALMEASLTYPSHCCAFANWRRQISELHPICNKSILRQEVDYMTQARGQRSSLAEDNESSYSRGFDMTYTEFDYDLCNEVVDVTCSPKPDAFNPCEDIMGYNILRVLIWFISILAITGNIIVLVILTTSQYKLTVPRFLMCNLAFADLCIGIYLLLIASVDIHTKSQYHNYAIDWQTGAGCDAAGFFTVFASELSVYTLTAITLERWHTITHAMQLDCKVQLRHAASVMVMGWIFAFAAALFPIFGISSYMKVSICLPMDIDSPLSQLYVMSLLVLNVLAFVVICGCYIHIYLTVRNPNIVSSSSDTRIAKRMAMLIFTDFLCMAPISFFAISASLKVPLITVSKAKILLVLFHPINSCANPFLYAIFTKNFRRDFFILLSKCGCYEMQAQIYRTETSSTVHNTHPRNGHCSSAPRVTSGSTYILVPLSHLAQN
- Protocol Description: Follicle-Stimulating Hormone Receptor-Dependent Cre-Luciferase Reporter Gene Assay (CHO FSH-R 6CRE-Luc cells)
- Protocol Conditions: dose-response format, in presence of EC50 of purified human FSH
pIC50: −log10 of the molar value.

Compound: COc1cc(C(=O)N2Cc3ccc(C(=O)NCc4ccc(F)cc4F)n3Cc3ccccc32)ccc1-c1ccccc1C [Example 61]
pIC50: 5.37
--
Compound: COc1cc(C(=O)N2Cc3ccc(C(=O)NCCc4ccc(C)cc4)n3Cc3ccccc32)ccc1-c1ccccc1C [Example 48]
pIC50: < 4.52
--
Compound: COc1cc(C(=O)N2Cc3ccc(C(=O)NCc4ccc(OC(F)(F)F)cc4)n3Cc3ccccc32)ccc1-c1ccccc1C [Example 45]
pIC50: < 4.52

Let us move to another entry and its pIC50.
What pIC50 value was documented for this compound, COc1cc(C(=O)N2Cc3ccc(C(=O)NCC(O)c4ccccc4)n3Cc3ccccc32)ccc1-c1ccccc1C (stereo not shown) [Example 63] ?
< 4.52

* * *

- Target Entity: human FSH receptor (Homo sapiens)
- Construct: host or cells: CHO-K1 (CHO FSH-R 6CRE-Luc, 1D7 cells)
- Protocol Description: Follicle-Stimulating Hormone Receptor-Dependent Cre-Luciferase Reporter Gene Assay (CHO FSH-R 6CRE-Luc cells)
- Assay type: cell-based
- Protocol Conditions: 2-dose format; concentration in parentheses 30 μM; inhibition of the response to EC50 of FSH
// inhibition at 30 µM lookup, one value per entry
Just the number in %, nothing appended.

For orientation, consider the following solved cases.
Smiles Structure: Cc1cc(-c2ccccc2C)ccc1NC(=O)c1ccc2n1Cc1ccccc1N(C(=O)COc1ccc(Cl)cc1)C2
inhibition at 30 µM (%): 13
//
Smiles Structure: Cc1ccc(CCNC(=O)c2ccc3n2Cc2ccccc2N(C(=O)c2ccc(-c4ccccc4C)c(C)c2)C3)cc1
inhibition at 30 µM (%): 52
//
Smiles Structure: COc1ccc(CCNC(=O)c2ccc3n2Cc2ccccc2N(C(=O)c2ccc(-c4ccccc4C)c(C)c2)C3)cc1
inhibition at 30 µM (%): 62
//
Smiles Structure: Cc1ccccc1-c1ccc(C(=O)N2Cc3ccc(C(=O)NCc4ccc(O)cc4)n3Cc3ccccc32)cc1C
inhibition at 30 µM (%): 37
//
Smiles Structure: COc1ccc(CNC(=O)c2ccc3n2Cc2ccccc2N(C(=O)c2ccc(-c4ccccc4C)c(OC)c2)C3)cc1
inhibition at 30 µM (%): 60

I would be grateful if you could share the reported inhibition at 30 µM for "COc1cc(CNC(=O)c2ccc3n2Cc2ccccc2N(C(=O)CSc2ccc(Br)cc2)C3)ccc1O" .
37

Consider the compound "COC(=O)c1ccc(CNC(=O)c2ccc3n2Cc2ccccc2N(C(=O)COc2ccc(Cl)cc2C)C3)cc1" and give its measured inhibition at 30 µM.
3.5

* * *

melting point by entry:

Worked set:
Compound: COc1cc(C(=O)N2Cc3ccc(C(=O)NCc4ccc(Cl)cc4)n3Cc3ccccc32)ccc1-c1ccccc1C
melting point: 218 to 219 °C
//
Compound: Cc1ccccc1-c1ccc(C(=O)N2Cc3ccc(C(=O)NC(C)c4ccccc4)n3Cc3ccccc32)cc1C (stereo not shown)
melting point: 118 to 124 °C
//
Compound: COc1cc(C(=O)N2Cc3ccc(C(=O)NCc4cccc(C)c4)n3Cc3ccccc32)ccc1-c1ccccc1C
melting point: 165 to 166 °C
//
Compound: Cc1ccccc1-c1ccc(C(=O)N2Cc3ccc(C(=O)NC4CCc5ccccc54)n3Cc3ccccc32)cc1C (stereo not shown)
melting point: 122 to 124 °C
//
Compound: COc1cc(C(=O)N2Cc3ccc(C(=O)NCCc4ccc(Cl)cc4)n3Cc3ccccc32)ccc1-c1ccccc1C
melting point: 195 to 196 °C
//
Compound: O=C(Nc1ccc(-c2ccccc2)cc1)c1ccc2n1Cc1ccccc1N(C(=O)COc1ccc(Cl)cc1)C2
melting point: 201 to 202 °C

Now consider the entry below.
Reported melting point, compound "COC(=O)c1ccc(NC(=O)c2ccc3n2Cc2ccccc2N(C(=O)COc2ccc(Cl)cc2)C3)cc1OC" : ____
172 to 174 °C

* * *

Measured Metric: melting point

Smiles Structure: O=C(NCc1ccc2c(c1)OCO2)c1ccc2n1Cc1ccccc1N(C(=O)COc1ccc(Cl)cc1)C2
melting point: 168 to 169 °C
--
Smiles Structure: COc1cc(CNC(=O)c2ccc3n2Cc2ccccc2N(C(=O)CSc2ccc(Br)cc2)C3)ccc1O
melting point: 168 °C
--
Smiles Structure: COc1ccccc1-c1ccc(C(=O)N2Cc3ccc(C(=O)N[C@@H](CO)c4ccccc4)n3Cc3ccccc32)cc1
melting point: 195 to 196 °C

Request the reported melting point associated with "Cc1cccc(CNC(=O)c2ccc3n2Cc2ccccc2N(C(=O)COc2ccc(Cl)cc2)C3)c1"
130 to 131 °C

Which melting point reading was recorded for the compound "COc1cc(C(=O)N2Cc3ccc(C(=O)NCCCc4ccccc4)n3Cc3ccccc32)ccc1-c1ccccc1C" ?
191 °C

# get_value(readout='melting point', item= "Cc1ccccc1-c1ccc(C(=O)N2Cc3ccc(C(=O)NCCc4cccc(Cl)c4)n3Cc3ccccc32)cc1C" )
174 to 176 °C

Looking for the measured melting point of "Cc1ccc(CNC(=O)c2ccc3n2Cc2ccccc2N(C(=O)COc2ccc(Cl)cc2)C3)cc1" , can you help?
174 to 176 °C

Fill blank: measured melting point of the compound "Cc1ccccc1-c1ccc(C(=O)N2Cc3ccc(C(=O)NCc4ccc(OC(F)(F)F)cc4)n3Cc3ccccc32)cc1C" is ____.
147 to 149 °C

Requested read-out: melting point. Entry: "COc1ccc(CCNC(=O)c2ccc3n2Cc2ccccc2N(C(=O)c2ccc(-c4ccccc4C)c(C)c2)C3)cc1"
170 to 172 °C

Quick one: melting point for "COc1cc(C(=O)N2Cc3ccc(C(=O)NCc4cccc(C(F)(F)F)c4)n3Cc3ccccc32)ccc1-c1ccccc1C" ?
176 to 177 °C

# melting point lookup, item "COc1ccc(CCNC(=O)c2ccc3n2Cc2ccccc2N(C(=O)c2ccc(-c4ccccc4C)c(C)c2)C3)cc1OC"
130 to 136 °C

* * *

- Target Entity: human FSH receptor (Homo sapiens)
- Protocol Description: Follicle-Stimulating Hormone Receptor-Dependent Cre-Luciferase Reporter Gene Assay (CHO FSH-R 6CRE-Luc cells)
- Protocol Conditions: dose-response format, in presence of EC50 of purified human FSH
Measured Metric: log10(IC50) (log10 of the value in µM)
Base-10 log of IC50, unit µM.

Smiles Structure: Cc1ccccc1-c1ccc(C(=O)N2Cc3ccc(C(=O)NCCc4ccc(O)cc4)n3Cc3ccccc32)cc1C
Test Value: -0.10
--
Smiles Structure: COc1cccc(CNC(=O)c2ccc3n2Cc2ccccc2N(C(=O)c2ccc(-c4ccccc4C)c(C)c2)C3)c1
Test Value: 0.35
--
Smiles Structure: Cc1ccccc1-c1ccc(C(=O)N2Cc3ccc(C(=O)NCc4cccc(C(F)(F)F)c4)n3Cc3ccccc32)cc1C
Test Value: 0.93
--
Smiles Structure: Cc1ccccc1-c1ccc(C(=O)N2Cc3ccc(C(=O)NCc4cccc(CN)c4)n3Cc3ccccc32)cc1C
Test Value: 1.08

Fill in: log10(IC50) of "Cc1ccccc1-c1ccc(C(=O)N2Cc3ccc(C(=O)NCCc4ccc5c(c4)OCO5)n3Cc3ccccc32)cc1C" is ___
0.75

I would be grateful if you could share the reported log10(IC50) for "Cc1ccccc1-c1ccc(C(=O)N2Cc3ccc(C(=O)NCc4ccc5c(c4)OCO5)n3Cc3ccccc32)cc1C" .
0.15

# input compound: "Cc1ccccc1-c1ccc(C(=O)N2Cc3ccc(C(=O)NCc4cccc(N)c4)n3Cc3ccccc32)cc1C" ; wanted: its log10(IC50)
0.73

// log10(IC50) lookup, key: "Cc1ccc(CNC(=O)c2ccc3n2Cc2ccccc2N(C(=O)c2ccc(-c4ccccc4C)c(C)c2)C3)c(C)c1"
0.79

* * *

Measured Metric: melting point

Compound: O=C(NCCc1ccc(O)cc1)c1ccc2n1Cc1ccccc1N(C(=O)COc1ccc(Cl)cc1)C2
Test Value: 206 to 207 °C
//
Compound: O=C(NCc1ccc2c(c1)OCO2)c1ccc2n1Cc1ccccc1N(C(=O)CSc1ccc(Br)cc1)C2
Test Value: 154 to 155 °C
//
Compound: COC(=O)c1cc(NC(=O)c2ccc3n2Cc2ccccc2N(C(=O)COc2ccc(Cl)cc2)C3)cc(C(=O)OC)c1
Test Value: 213 to 217 °C
//
Compound: Cc1ccccc1-c1ccc(C(=O)N2Cc3ccc(C(=O)NC4Cc5ccccc5C4)n3Cc3ccccc32)cc1C
Test Value: 219 to 220 °C
//
Compound: COc1cc(C(=O)N2Cc3ccc(C(=O)NCc4ccccc4C)n3Cc3ccccc32)ccc1-c1ccccc1C
Test Value: 204 °C

If you can, please state the reported melting point value of O=C(NCC(O)c1ccccc1)c1ccc2n1Cc1ccccc1N(C(=O)COc1ccc(Cl)cc1)C2 (stereo not shown) .
157 to 158 °C

Field request: melting point | item: "COc1ccc(CCNC(=O)c2ccc3n2Cc2ccccc2N(C(=O)c2ccc(-c4ccccc4C)c(OC)c2)C3)cc1OC"
150 to 154 °C

These entries and their values trace back to patent US7691848B2.
